Test system: PC-3
Experiment: NCI tumour cell line growth inhibition, 48 h
Calls of active or inactive are those of the source. Rule as the data show it: active = GI50 up to about 1.1 µM and inactive = higher.
readoutName: GI50

compound: CC(C)NC1(C(N)=O)CCN(Cc2ccccc2)CC1
dataValue: > 100 µM (inactive)
--
compound: O=C(O)Cc1ccc(Oc2nc3ccccc3nc2C(=O)O)cc1
dataValue: > 100 µM (inactive)
--
compound: COc1ccccc1N1C(=O)C2C3c4ccccc4C(OC(C)=O)(c4ccccc43)C2C1=O (stereo not given)
dataValue: > 100 µM (inactive)
--
compound: CCOC(=O)C(NC(C)=O)(Nc1ccc(F)cc1)C(F)(F)F (stereo not given)
dataValue: > 100 µM (inactive)
--
compound: Cc1ccc(Oc2cc(C)ccc2P(=O)(O)O)cc1
dataValue: > 100 µM (inactive)
--
compound: COc1ccc2nccc(SCC(=O)O)c2c1
dataValue: > 100 µM (inactive)
--
compound: CC1(C)S[C@@H]2[C@H](N3C(=O)c4ccccc4C3=O)CN2[C@H]1NC(=O)N[C@@H]1N2C[C@@H](N3C(=O)c4ccccc4C3=O)[C@H]2SC1(C)C
dataValue: > 100 µM (inactive)
--
compound: NC(=S)NN=C1Cc2ccccc2C1
dataValue: > 100 µM (inactive)
--
compound: COc1cc(/C=C2/C(=O)N(C(=O)c3ccccc3O)N=C2C)cc(OC)c1OC
dataValue: 6.93 µM (inactive)
--
compound: Oc1ccc2ccccc2c1-c1c(Nc2ccccc2)ccc2ccccc12
dataValue: 18.4 µM (inactive)
